Data provenance: patent US20100041597A1

Form field: binding capacity (%) (one value per entry).
target: T1, PKC-δ (purified isoform) (Homo sapiens (Human), UniProt Q05655 1-676); assay: competitive ELISA on purified PKC-δ vs anti-PKC-δ Ab; PRE 100 µM
T1 construct: also called PKC-delta; PKCdelta
T1 sequence (Q05655 whole entry, stated change not applied, canonical isoform): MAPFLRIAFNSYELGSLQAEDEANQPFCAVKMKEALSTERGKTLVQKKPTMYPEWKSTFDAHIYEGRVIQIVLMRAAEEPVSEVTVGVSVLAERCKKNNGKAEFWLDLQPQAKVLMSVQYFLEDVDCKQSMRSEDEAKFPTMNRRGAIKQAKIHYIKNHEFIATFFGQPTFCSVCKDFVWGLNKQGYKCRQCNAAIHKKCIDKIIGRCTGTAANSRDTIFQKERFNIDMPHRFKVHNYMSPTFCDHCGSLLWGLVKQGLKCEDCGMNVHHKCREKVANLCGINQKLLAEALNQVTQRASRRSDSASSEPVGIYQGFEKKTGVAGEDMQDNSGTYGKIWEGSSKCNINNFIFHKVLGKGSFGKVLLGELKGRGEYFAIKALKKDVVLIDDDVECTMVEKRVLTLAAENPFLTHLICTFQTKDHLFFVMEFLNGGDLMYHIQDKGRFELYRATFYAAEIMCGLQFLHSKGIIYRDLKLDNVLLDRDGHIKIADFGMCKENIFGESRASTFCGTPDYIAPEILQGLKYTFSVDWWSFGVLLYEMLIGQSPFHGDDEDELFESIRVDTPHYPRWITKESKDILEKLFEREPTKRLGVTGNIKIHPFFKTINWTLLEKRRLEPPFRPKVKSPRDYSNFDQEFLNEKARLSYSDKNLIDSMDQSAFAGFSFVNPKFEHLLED
I only need the number, in %, no unit after it.

See these solved cases before continuing.
INSERT INTO assay_data (binder, measurement_type, quantitative_result) VALUES
  ('Ac-AKGIQEVKGGKDAQNLIGISI-NH2 (Synthetic peptide; also called peptide PRE 5) [PRE 5]', 'binding capacity (%)', 0),
  ('Ac-RDAQNLIGISI-NH2 (Synthetic peptide; also called peptide PRE 11) [PRE 11]', 'binding capacity (%)', 21.5),
  ('Ac-KDAQNLIGISI-NH2 (Synthetic peptide; also called peptide PRE 4) [PRE 4]', 'binding capacity (%)', 30.7);

In: Entry RRKKGGKDFVVKR (Synthetic peptide, solid phase synthesis; termini given free; also called peptide PRE 1) [PRE 1] needs its binding capacity (%) filled in; supply it.
Out: 45.2
